# Tested on: U-251
# TEST PROTOCOL: NCI tumour cell line growth inhibition, 48 h
Activity calls are given as the source filed them. No stated cut-off is given here; in the data, active = GI50 up to about 1.1 µM and inactive = higher.
Assign a class; possible classes are true = active, false = inactive

Example results:
>  <COMPOUND>
Cc1nc(C(N)=S)sc1C(=O)CC(=O)C(=O)Nc1c(C(C)C)cccc1C(C)C

>  <EXPERIMENTAL TARGET>
U-251

>  <GROUP>
false

$$$$
>  <COMPOUND>
CCS[C@H]1NC(=O)C1[C@H](C)O[Si](C)(C)C(C)(C)C (stereo partly drawn)

>  <EXPERIMENTAL TARGET>
U-251

>  <GROUP>
false

$$$$
>  <COMPOUND>
COc1ccc(/C=N/NC(=O)C2=C(N)N(c3ccccc3)C(=C(C#N)C#N)S2)cc1

>  <EXPERIMENTAL TARGET>
U-251

>  <GROUP>
false

$$$$
>  <COMPOUND>
O=C1c2ccccc2C2C1N2C(=O)C(F)(F)F (stereo not drawn)

>  <EXPERIMENTAL TARGET>
U-251

>  <GROUP>
false

$$$$
>  <COMPOUND>
CC(=O)/N=C1\N/C(=C\c2ccc(Cl)cc2)C(=O)N1/C=C1\C(=O)Oc2ccccc2C1=O

>  <EXPERIMENTAL TARGET>
U-251

>  <GROUP>
false

$$$$

Hi, do you know how `CN(C(=O)c1ccccc1)c1ccc2c(c1)C(=O)c1ccccc1C2=O` came out in this test? false

Hi, do you know how `Cc1nc2c(c(=O)[nH]1)S/C(=C(/C#N)c1nc3ccccc3[nH]1)N2c1ccccc1` came out in this test? false

Hi, do you know how `COC(Cc1cc(C(O)(c2ccc(C(C)(C)C)cc2)c2cc(CC(OC)(c3cc(C(OC)(c4ccc(C(C)(C)C)cc4)c4ccc(C(C)(C)C)cc4)c(C)cc3C)c3cc(C(OC)(c4ccc(C(C)(C)C)cc4)c4ccc(C(C)(C)C)cc4)c(C)cc3C)c(C)cc2C)c(C)cc1C)(c1cc(C(OC)(c2ccc(C(C)(C)C)cc2)c2ccc(C(C)(C)C)cc2)c(C)cc1C)c1cc(C(OC)(c2ccc(C(C)(C)C)cc2)c2ccc(C(C)(C)C)cc2)c(C)cc1C` came out in this test? false

Hi, do you know how `C/C(=C1/CCC/C(=C(/C)c2ccccc2)C1=O)c1ccccc1` came out in this test? false
